- system name: UniProtKB P05164
- measurement protocol: HOCl production by isolated MPO-H2O2-Cl− system
- Type: biochemical
parameter measured: pIC50
Answers are plain numbers, as −log10 of the molar value.

Entry under review: CC1(C)CC(N)CC(C)(C)N1[O] . Reported pIC50?
5.92

---

- system name: myeloperoxidase (MPO) (Homo sapiens)
- Sequence (P05164 165-273): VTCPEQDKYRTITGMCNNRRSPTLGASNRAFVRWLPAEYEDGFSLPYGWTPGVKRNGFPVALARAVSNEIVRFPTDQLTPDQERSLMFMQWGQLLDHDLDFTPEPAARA
- Sequence (P05164 279-745): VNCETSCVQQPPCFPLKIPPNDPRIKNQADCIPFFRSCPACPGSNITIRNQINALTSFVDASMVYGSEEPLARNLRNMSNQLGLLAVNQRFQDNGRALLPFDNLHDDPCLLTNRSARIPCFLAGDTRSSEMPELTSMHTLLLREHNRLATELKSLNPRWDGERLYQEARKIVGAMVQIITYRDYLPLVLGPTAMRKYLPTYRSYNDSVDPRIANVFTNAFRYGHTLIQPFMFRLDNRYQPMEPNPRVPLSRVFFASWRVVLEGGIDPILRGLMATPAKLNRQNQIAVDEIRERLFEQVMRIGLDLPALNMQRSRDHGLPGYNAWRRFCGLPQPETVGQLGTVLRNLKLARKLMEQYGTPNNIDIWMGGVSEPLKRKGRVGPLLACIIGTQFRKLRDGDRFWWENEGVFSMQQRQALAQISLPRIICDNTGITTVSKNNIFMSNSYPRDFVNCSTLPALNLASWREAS
- measurement protocol: HOCl production by isolated MPO-H2O2-Cl− system
- Format: biochemical
parameter measured: IC50 (µM)
One number for each entry, in µM.

Entry under review: CC1(C)CC(N)C(C)(C)N1[O] (stereo not shown) [3-AminoPROXYL] . Reported IC50?
2.7
